These entries and their values trace back to patent US11981658B2.

molecular target: EGFR Del19/C797S (Homo sapiens, UniProt P00533, C797S/DEL746-750); assay: Biochemical EGFR kinase inhibition assay (Lance Ultra TR-FRET), double mutant del19/C797S; settings: Km ATP; read-out: IC50 Del19/C797S (nM) Km ATP
Sequence (P00533 with tags, fused parts or gaps DEL746-750/C797S): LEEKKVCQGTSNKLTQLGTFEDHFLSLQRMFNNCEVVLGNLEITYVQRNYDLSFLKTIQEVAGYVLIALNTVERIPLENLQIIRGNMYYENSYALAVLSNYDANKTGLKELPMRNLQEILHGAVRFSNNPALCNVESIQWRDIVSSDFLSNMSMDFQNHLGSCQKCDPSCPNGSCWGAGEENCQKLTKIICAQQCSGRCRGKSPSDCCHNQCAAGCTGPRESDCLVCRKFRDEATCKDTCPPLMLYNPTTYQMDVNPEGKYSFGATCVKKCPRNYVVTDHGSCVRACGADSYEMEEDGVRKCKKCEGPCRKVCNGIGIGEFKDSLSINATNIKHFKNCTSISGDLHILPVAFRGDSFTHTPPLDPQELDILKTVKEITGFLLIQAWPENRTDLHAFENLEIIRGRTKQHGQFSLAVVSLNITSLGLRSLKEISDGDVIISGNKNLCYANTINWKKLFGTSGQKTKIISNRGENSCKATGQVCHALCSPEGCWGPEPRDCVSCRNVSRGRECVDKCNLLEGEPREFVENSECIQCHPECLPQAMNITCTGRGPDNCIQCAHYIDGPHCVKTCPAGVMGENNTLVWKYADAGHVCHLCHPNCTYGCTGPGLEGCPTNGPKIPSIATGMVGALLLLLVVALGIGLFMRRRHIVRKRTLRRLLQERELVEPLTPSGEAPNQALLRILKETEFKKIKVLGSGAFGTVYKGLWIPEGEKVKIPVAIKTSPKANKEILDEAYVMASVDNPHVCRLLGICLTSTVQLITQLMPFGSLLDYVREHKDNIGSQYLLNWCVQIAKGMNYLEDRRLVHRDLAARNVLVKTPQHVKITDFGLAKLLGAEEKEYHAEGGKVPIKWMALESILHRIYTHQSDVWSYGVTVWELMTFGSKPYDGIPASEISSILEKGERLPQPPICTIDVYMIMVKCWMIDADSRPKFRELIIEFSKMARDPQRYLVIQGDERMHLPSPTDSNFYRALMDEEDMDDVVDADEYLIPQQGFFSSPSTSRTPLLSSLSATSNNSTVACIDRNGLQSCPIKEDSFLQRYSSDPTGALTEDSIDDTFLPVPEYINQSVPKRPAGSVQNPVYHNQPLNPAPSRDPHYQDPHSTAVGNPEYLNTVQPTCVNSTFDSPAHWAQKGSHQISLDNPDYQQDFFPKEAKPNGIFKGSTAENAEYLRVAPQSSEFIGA
property-label: IC50 (nM)
The reply should contain only the number, in nM.

[in] For the molecule shown here, `Cn1cc(C#Cc2cnc(Nc3ccnc(-c4cnn(S(=O)(=O)C5CC5)c4)n3)cc2-c2cnn(C)c2)cn1` , give the reported IC50.
[out] 299

[in] For the molecule shown here, `CC1(CO)CCN(c2cc(Nc3ccnc(-c4cnn(S(=O)(=O)C5CC5)c4)n3)ncc2C#Cc2cnn(CC3CCOCC3)c2)CC1` , give the reported IC50.
[out] 1.3

[in] For the molecule shown here, `Cn1cc(C#Cc2cnc(Nc3ccnc(-c4cnn(S(=O)(=O)C5CC5)c4)n3)cc2N[C@H]2CCC[C@@H](O)C2)cn1` , give the reported IC50.
[out] 3.8

[in] For the molecule shown here, `CC1(CO)CCN(c2cc(Nc3ccnc(-c4cnn(S(=O)(=O)C5CC5)c4)n3)ncc2C#Cc2cnn3c2CNCC3)CC1` , give the reported IC50.
[out] 0.2

[in] For the molecule shown here, `O=S(=O)(C1CC1)n1cc(-c2nccc(Nc3cc(N4CCN(CCO)CC4)c(C#Cc4cnn(CCF)c4)cn3)n2)cn1` , give the reported IC50.
[out] 68.6

[in] For the molecule shown here, `Cn1cc(C#Cc2cnc(Nc3ccnc(-c4cnn(S(=O)(=O)C5CC5)c4)n3)cc2N2CCC(NCC(F)F)CC2)cn1` , give the reported IC50.
[out] 1.4

[in] For the molecule shown here, `Cn1cc(C#Cc2cnc(Nc3ccnc(-c4cnn(S(=O)(=O)C5CC5)c4)n3)cc2N2CCC(NCC(F)(F)F)CC2)cn1` , give the reported IC50.
[out] 1.6

[in] For the molecule shown here, `Cn1ccc(C#Cc2cnc(Nc3ccnc(-c4cnn(S(=O)(=O)C5CC5)c4)n3)cc2N2CCC(C)(CO)CC2)n1` , give the reported IC50.
[out] 3.2

[in] For the molecule shown here, `CN(C)CCNC1CCN(c2cc(Nc3ccnc(-c4cnn(S(=O)(=O)C5CC5)c4)n3)ncc2C#Cc2ccn(C)n2)CC1` , give the reported IC50.
[out] 5.9

[in] For the molecule shown here, `CC(=O)N1CCC(n2cc(C#Cc3cnc(Nc4ccnc(-c5cnn(S(=O)(=O)C6CC6)c5)n4)cc3N3CCC(=O)CC3)cn2)CC1` , give the reported IC50.
[out] 25.5

[in] For the molecule shown here, `Cn1ccc(C#Cc2cnc(Nc3ccnc(-c4cnn(S(=O)(=O)C5CC5)c4)n3)cc2N[C@H]2CC[C@@H](O)CC2)n1` , give the reported IC50.
[out] 12.5

[in] For the molecule shown here, Cn1cc(C#Cc2cnc(Nc3ccnc(-c4cnn(S(=O)(=O)C5CC5)c4)n3)cc2N2CCCC(CO)CC2)cn1 (stereo not shown) , give the reported IC50.
[out] 10.4

[in] For the molecule shown here, `CN(C)CCn1cc(C#Cc2cnc(Nc3ccnc(-c4cnn(S(=O)(=O)C5CC5)c4)n3)cc2N2CCC(F)(CO)CC2)cn1` , give the reported IC50.
[out] 0.4
